The compounds listed here are annotated with their activation.
- Experiment notes: mutant p53 pathway re-activators, primary screen, cell-based, SW480, luciferase, single point, HTS (AID 624151)
- Run conditions: SW480 PUMA-promoter luciferase, p53 mutant reactivation; at 9.98 µM; hits give high values
The campaign covered roughly 28,000 compounds. About 410 (1.5%) were called active. Shown is part of a subset that was picked to be rich in actives.

>  <Compound>
O=C(NCc1ccccn1)c1ccccc1C(=O)c1ccccc1

>  <Parameter>
activation

>  <Readout value>
-9.74% (inactive)

$$$$

Fill blank: measured activation of the compound Cc1ccc(N(CC(O)CN2C(=O)NC(C)(C)C2=O)S(=O)(=O)c2ccccc2)cc1 (centres undefined) is ____. 22.6% (inactive)

May I ask what activation has been recorded for CC(=O)OC[C@H]1O[C@@H](Oc2c(-c3ccc(O)c(O)c3)oc3cc(O)cc(O)c3c2=O)[C@H](O)[C@@H](O)[C@@H]1O ? 7.83% (inactive)

Bench note: what activation did CN(C)CCNc1oc(COc2ccc(F)cc2)nc1C#N show? -4.45% (inactive)

I am curious: what activation value has been reported for CC(=O)Oc1ccc(C(=O)N(C(=O)c2ccc(OC(C)=O)cc2)c2cc(C)ccn2)cc1 ? 6.89% (inactive)

May I ask what activation has been recorded for COc1ccc(NC(=O)C(C)N2c3cccc4cccc(c34)S2(=O)=O)c(OC)c1 (centres undefined) ? -6.27% (inactive)

Report activation for Cn1nnc(NC(=O)COc2ccc(Cl)cc2Cl)n1 please. 70.8% (active)

Fill in: activation of COc1ccc(C(=O)CSc2nnc(-c3cccc(C)c3)n2-c2ccccc2)cc1 is ___ -17.1% (inactive)

Which activation is reported for this compound? C[C@@H]1CN([C@@H](C)CO)S(=O)(=O)c2ccc(-c3cccc(C#N)c3)cc2O[C@@H]1CN(C)Cc1cccc(F)c1 -25.7% (inactive)

Data request, read-out activation, for Nc1nnc(SCC(=O)Nc2ccc(F)c(Cl)c2)s1 -1.2% (inactive)

* * *

- Experiment notes: mutant p53 pathway re-activators, primary screen, cell-based, SW480, luciferase, single point, HTS (AID 624151)
- Run conditions: SW480 PUMA-promoter luciferase, p53 mutant reactivation; at 9.98 µM; hits give high values
Hit rate of the full screen: of about 28,000 compounds, about 410 (1.5%) were called active. The entries come from a sample that favours actives as a whole.
Listed below: activation values for each entry.
Give the number; % is assumed, so skip it.

Study these solved cases before continuing.
>  <Compound>
COc1ccc(NC(=O)C(=O)NCC(=O)Nc2cccc(C(F)(F)F)c2)cc1

>  <Result unit>
%

>  <activation>
3.32

$$$$
>  <Compound>
CS(=O)(=O)N(CC(=O)Nc1ccccc1C(=O)N1CCOCC1)c1ccc(I)cc1

>  <Result unit>
%

>  <activation>
9.09

$$$$

Return reported activation; argument: COCC#Cc1cnc2c(c1)C(=O)N([C@@H](C)CO)C[C@@H](C)[C@H](CN(C)C(=O)c1cnccn1)O2 2.72

Requested read-out: activation. Entry: CC(=O)N1C(=S)NC(=O)/C1=C/c1c(Cl)cccc1Cl -5.19

Look at this compound and give its reported activation. C[C@@H]1CN([C@@H](C)CO)S(=O)(=O)c2ccc(C#CCC3CCCC3)cc2O[C@H]1CN(C)Cc1ccc(C(=O)O)cc1 -0.35

Can you share its activation? I mean this compound: CN(CC(=O)Nc1ccccc1C#N)S(=O)(=O)c1ccc2ccccc2c1 0.461

Query (compound): CC(C)c1cnc(NC(=O)Cc2ccccc2)s1 ; field requested: activation 118

Param item = C[C@@H]1CN([C@@H](C)CO)C(=O)c2c(c3ccccc3n2C)-c2ccccc2CO[C@@H]1CN(C)S(=O)(=O)CC(F)(F)F ; retrieve measured activation. 6.74

Quick one: activation for COc1cc(CO)cc(Cl)c1OCc1cccc([N+](=O)[O-])c1 ? 0.353

* * *

- Experiment notes: mutant p53 pathway re-activators, primary screen, cell-based, SW480, luciferase, single point, HTS (AID 624151)
- Run conditions: SW480 PUMA-promoter luciferase, p53 mutant reactivation; at 9.98 µM
Hit rate of the full screen: of about 28,000 compounds, about 410 (1.5%) were called active. Rule as the data show it: active = activation above about 52%; inconclusive = no clear call, values can overlap the other calls; inactive = below that. This is one part of a sample in which actives are shown more often than they occur.
Would you mind answering with one of these outcomes? active, inactive

Example entries and their recorded answers appear below.
>  <Molecule>
C[C@@H]1CN([C@@H](C)CO)S(=O)(=O)c2ccc(C#CC3(O)CCCC3)cc2O[C@H]1CN(C)C(=O)c1ccncc1

>  <Class label>
inactive

$$$$
>  <Molecule>
O=C(CN1CCOCC1)Nc1ccc(NC(=O)CN2CCOCC2)c(Cl)c1

>  <Class label>
inactive

$$$$
>  <Molecule>
CCOc1ccc2c(=O)c(Oc3ccccc3Br)coc2c1

>  <Class label>
active

$$$$

# fetch the recorded call for COc1ccc(NC(=O)Nc2ccc3c(c2)[C@@H]2C[C@H](CC(=O)N[C@@H](C)c4ccccc4)O[C@@H](CO)[C@@H]2O3)cc1 here inactive

Would you mind telling me which call this test gave CCn1c(SCC(=O)Nc2ccc3c(c2)OCCO3)nnc1-c1ccncc1 ? inactive

Which outcome was entered for the molecule CCCC#Cc1cnc2c(c1)C(=O)N([C@H](C)CO)C[C@H](C)[C@H](CN(C)S(=O)(=O)c1cn(C)cn1)O2 in this test? inactive

Hey, what did the test say about Cc1cccc(NC(=O)CSc2nnc3c4ccccc4nc(-c4ccccc4)n23)c1 ? inactive

Which result was noted for this molecule in the test: C[C@H]1CN([C@@H](C)CO)C(=O)c2cc(-c3ccc(C#N)cc3)cnc2O[C@@H]1CN(C)Cc1ccncc1 inactive

# fetch the recorded call for C[C@@H]1CN([C@@H](C)CO)C(=O)c2cc(C#CC(C)(C)O)cnc2O[C@H]1CN(C)Cc1cccc(F)c1 here inactive

* * *

- Experiment notes: mutant p53 pathway re-activators, primary screen, cell-based, SW480, luciferase, single point, HTS (AID 624151)
- Run conditions: SW480 PUMA-promoter luciferase, p53 mutant reactivation; at 9.98 µM; hits give high values
In all, about 28,000 compounds went through this assay and about 410 (1.5%) were called active. This excerpt belongs to a sample that is enriched for actives.
Parameter: activation (%)
Give just the numeric value; % need not be written.

>  <Structure as smiles>
C[C@@H]1CN([C@H](C)CO)S(=O)(=O)c2ccc(C#CC3CC3)cc2O[C@H]1CN(C)C(=O)C1CCCCC1

>  <Readout value>
-13.7

$$$$
>  <Structure as smiles>
Cc1ccccc1-n1c(C)cc(/C=C2\NC(=O)NC2=O)c1C

>  <Readout value>
22.9

$$$$
>  <Structure as smiles>
COCC#Cc1ccc2c(c1)O[C@H](CN(C)Cc1ccc3c(c1)OCO3)[C@H](C)CN([C@H](C)CO)S2(=O)=O

>  <Readout value>
12.5

$$$$

Recorded activation of COc1ccc(C#Cc2cnc3c(c2)C(=O)N([C@H](C)CO)C[C@H](C)[C@@H](CN(C)C)O3)cc1 , please. 0.282

Could you share which activation value was measured for C[C@H](CO)N1C[C@H](C)[C@H](CN(C)C(=O)c2cnccn2)Oc2cc(C3=CCCC3)ccc2S1(=O)=O ? 3.46

Returns the measured activation for the input molecule. Input: CC(C)C#Cc1ccc2c(c1)O[C@@H](CN(C)Cc1ccncc1)[C@@H](C)CN([C@@H](C)CO)S2(=O)=O -4.79

Item C/C=C/c1cnc2c(c1)C(=O)N([C@@H](C)CO)C[C@H](C)[C@@H](CN(C)C(=O)C1CC1)O2 has what recorded activation? -5.73

Fill in: activation of Cc1ccc(NC(=O)CCCN2C(=O)c3ccccc3C2=O)cc1 is ___ 11.8

* * *

- Experiment notes: mutant p53 pathway re-activators, primary screen, cell-based, SW480, luciferase, single point, HTS (AID 624151)
- Run conditions: SW480 PUMA-promoter luciferase, p53 mutant reactivation; at 9.98 µM
In all, about 28,000 compounds went through this assay and about 410 (1.5%) were called active. No stated cut-off is given here; in the data, active means activation above about 52%; inconclusive means no clear call, values can overlap the other calls; inactive means below that. The sample as a whole holds a higher share of actives than the screen did.
Permitted responses: active, inactive

>  <Compound>
Cc1ccc(NC(=O)COc2ccccc2C)c([N+](=O)[O-])c1

>  <Class label>
active

$$$$
>  <Compound>
COc1ccc(C(=O)Nc2cc(C)ccc2NC(=O)COc2ccccc2)cc1

>  <Class label>
inactive

$$$$
>  <Compound>
CS(=O)(=O)N(CC(=O)Nc1cc(C(F)(F)F)ccc1Cl)c1ccccc1Br

>  <Class label>
inactive

$$$$
>  <Compound>
COc1ccc(C(=O)CCC(=O)Nc2ccc(Br)cc2)cc1

>  <Class label>
inactive

$$$$
>  <Compound>
COc1ccccc1-c1cnc2c(c1)C(=O)N([C@@H](C)CO)C[C@@H](C)[C@@H](CN(C)C(=O)c1cccnc1)O2

>  <Class label>
inactive

$$$$
>  <Compound>
O=C1c2ccccc2C(=O)N1CCCc1nc2ccccc2c(=O)n1-c1nc2ccccc2s1

>  <Class label>
active

$$$$

Please let me know the test result on file for O=C1c2ccccc2C(=O)N1CCCn1c2ccccc2c2nc3ccc([N+](=O)[O-])cc3cc21 . inactive

Entry Cc1ccc(-c2nc3cc(NC(=O)COc4ccc([N+](=O)[O-])cc4)ccc3o2)cc1C : call = ? inactive

What call does the record list for Cn1c(SCC(=O)Nc2c(Cl)cccc2Cl)nnc1-c1ccc(NC(=O)c2ccc(F)cc2)cc1 ? inactive

What call does the record list for CC(NS(=O)(=O)c1ccc(F)cc1)C(=O)Nc1ccc(I)cc1 (stereo not given) ? inactive
